Hello, the source for this data is ChEMBL document CHEMBL4706653, in case you need it.

Test system: Erythrocyte
test.details: Hemolytic activity against mouse erythrocytes measured after 1 hr
Assay type: ADME, cell-based
Residues, ends and D or L forms follow the SMILES beside them. *: point of attachment. Palmitoyl = CCCCCCCCCCCCCCCC(=O)*; Lauroyl = CCCCCCCCCCCC(=O)*; Octanoyl = CCCCCCCC(=O)*
Measured MHC10, listed per entry.
property.measured: MHC10

{"compound": "CCCCCCCCCCCCCCCC(=O)N[C@@H](CCCNC(=N)N)C(=O)N[C@@H](Cc1c[nH]c2ccccc12)C(=O)N[C@@H](Cc1c[nH]c2ccccc12)C(N)=O (Palmitoyl-Arg-Trp-Trp-NH2)", "property.measured": "MHC10", "result": "> 256 µM"}
{"compound": "CCCCCCCC(=O)N[C@@H](CCCNC(=N)N)C(=O)N[C@@H](CCCNC(=N)N)C(=O)N[C@@H](CCCNC(=N)N)C(N)=O (Octanoyl-Arg-Arg-Arg-NH2)", "property.measured": "MHC10", "result": "> 256 µM"}
{"compound": "CCCCCCCCCCCC(=O)N[C@@H](CCCNC(=N)N)C(=O)N[C@@H](Cc1c[nH]c2ccccc12)C(=O)N[C@@H](CCCNC(=N)N)C(N)=O (Lauroyl-Arg-Trp-Arg-NH2)", "property.measured": "MHC10", "result": "64 µM"}
{"compound": "CCCCCCCC(=O)N[C@@H](Cc1c[nH]c2ccccc12)C(=O)N[C@@H](CCCNC(=N)N)C(=O)N[C@@H](CCCNC(=N)N)C(N)=O (Octanoyl-Trp-Arg-Arg-NH2)", "property.measured": "MHC10", "result": "> 256 µM"}

###

test.details: Cytotoxicity against HEK293T cells assessed as cell viability at 128 uM measured after 24 hrs by MTT assay relative to control
Assay type: cell-based, HEK-293T
measurement.parameters: human, read-out: Activity
Residues, ends and D or L forms follow the SMILES beside them. *: point of attachment. Myristoyl = CCCCCCCCCCCCCC(=O)*
property.measured: viability at 24 h, 128 µM

{"molecule": "CCCCCCCCCCCCCC(=O)N[C@@H](CCCNC(=N)N)C(=O)N[C@@H](Cc1c[nH]c2ccccc12)C(=O)N[C@@H](Cc1c[nH]c2ccccc12)C(N)=O (Myristoyl-Arg-Trp-Trp-NH2)", "property.measured": "viability at 24 h, 128 µM", "result": "> 80%"}

###

Tested on: Staphylococcus aureus
test.details: Antimicrobial activity against Staphylococcus aureus ATCC 25923 after 18 hrs by broth microdilution method
Format: functional
Residues, ends and D or L forms follow the SMILES beside them. *: point of attachment. Myristoyl = CCCCCCCCCCCCCC(=O)*

{"molecule": "CN[C@H](CC(C)C)C(=O)N[C@H]1C(=O)N[C@@H](CC(N)=O)C(=O)N[C@H]2C(=O)N[C@H]3C(=O)N[C@H](C(=O)N[C@H](C(=O)O)c4cc(O)cc(O)c4-c4cc3ccc4O)[C@H](O)c3ccc(c(Cl)c3)Oc3cc2cc(c3O[C@@H]2O[C@H](CO)[C@@H](O)[C@H](O)[C@H]2O[C@H]2C[C@](C)(N)[C@H](O)[C@H](C)O2)Oc2ccc(cc2Cl)[C@H]1O", "system.tested": "Staphylococcus aureus", "MIC": "< 1 µM"}
{"molecule": "CCCCCCCCCCCCCC(=O)N[C@@H](CCCNC(=N)N)C(=O)N[C@@H](CCCNC(=N)N)C(=O)N[C@@H](CCCNC(=N)N)C(N)=O (Myristoyl-Arg-Arg-Arg-NH2)", "system.tested": "Staphylococcus aureus", "MIC": "16 µM"}
